System: 362531-283-R-J2-PDC complex spheroid viability
Experiment: Anticancer human tumor 362531-283-R-J2-PDC patient-derived colon adenocarcinoma cell line growth inhibition [RAS]
Settings: second compound 0.03 µM; first compound 3.16 µM; stronger effect = lower value
Quantity Name: viability, T/C (%)
Give your result in % as a bare value.

Fill in: 362531-283-R-J2-PDC complex spheroid viability viability, T/C for CC(C)NCC(C(=O)N1CCN(c2ncnc3c2C(C)CC3O)CC1)c1ccc(Cl)cc1 (stereo not drawn) + CCn1c(-c2cc(N3CCN(C)CC3)cnc2C(C)OC)c2c3cc(ccc31)-c1csc(n1)CC(NC(=O)C1CC1C)C(=O)N1CCCC(N1)C(=O)OCC(C)(C)C2 = 92.6

Fill in: 362531-283-R-J2-PDC complex spheroid viability viability, T/C for CC1(O)CCCC1n1c(=O)c(C(F)F)cc2cnc(NC3CCN(S(C)(=O)=O)CC3)nc21 (stereo not drawn) + CCn1c(-c2cccnc2C(C)OC)c2c3cc(ccc31)N1CCOC(CC(NC(=O)C(C(C)C)N(C)C(=O)C3(F)CCN(C(=O)C#CC(C)(C)N(C)C)CC3)C(=O)N3CCCC(N3)C(=O)OCC(C)(C)C2)C1 = 63.9

Turning now to a further record.
Fill in: 362531-283-R-J2-PDC complex spheroid viability viability, T/C for CC(Nc1ccc2c(c1)OCCn1cc(N3C(=O)OCC3C(F)F)nc1-2)C(N)=O (stereo not drawn) + CCn1c(-c2cc(N3CCN(C)CC3)cnc2C(C)OC)c2c3cc(ccc31)-c1csc(n1)CC(NC(=O)C1CC1C)C(=O)N1CCCC(N1)C(=O)OCC(C)(C)C2 = 38.7

----------
Catalogue of compounds with associated viability, T/C
System: 362531-283-R-J2-PDC complex spheroid viability
Assay: Anticancer human tumor 362531-283-R-J2-PDC cell line growth inhibition [RAS];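 further: spheroids exposed to the agents for 7 days before readout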;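 on viability, T/C: luminescence viability as percent of DMSO vehicle control wells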
Conditions: second compound 0.3 µM; first compound 0.316 µM; stronger effect = lower value
Give your result in % as a bare value.

As a guide, the following entries are already answered.
Fill in: 362531-283-R-J2-PDC complex spheroid viability viability, T/C for NC1c2ccccc2OC12CCN(c1cnc3c(N4CCCc5ncccc54)n[nH]c3n1)CC2 (stereo not drawn) + CCn1c(-c2cc(N3CCN(C)CC3)cnc2C(C)OC)c2c3cc(ccc31)-c1csc(n1)CC(NC(=O)C1CC1C)C(=O)N1CCCC(N1)C(=O)OCC(C)(C)C2 = 5.67

Fill in: 362531-283-R-J2-PDC complex spheroid viability viability, T/C for CCN1CCN(Cc2ccc(Nc3ncc(F)c(-c4cc(F)c5nc(C)n(C(C)C)c5c4)n3)nc2)CC1 + CCn1c(-c2cccnc2C(C)OC)c2c3cc(ccc31)N1CCOC(CC(NC(=O)C(C(C)C)N(C)C(=O)C3(F)CCN(C(=O)C#CC(C)(C)N(C)C)CC3)C(=O)N3CCCC(N3)C(=O)OCC(C)(C)C2)C1 = 57.2

Turning now to a further record.
Fill in: 362531-283-R-J2-PDC complex spheroid viability viability, T/C for Nc1ccn(C2OC(CO)C(O)C2(F)F)c(=O)n1 (stereo not drawn) + CCn1c(-c2cccnc2C(C)OC)c2c3cc(ccc31)N1CCOC(CC(NC(=O)C(C(C)C)N(C)C(=O)C3(F)CCN(C(=O)C#CC(C)(C)N(C)C)CC3)C(=O)N3CCCC(N3)C(=O)OCC(C)(C)C2)C1 = 23.2

----------
Catalogue of compounds with associated viability, T/C
System: 362531-283-R-J2-PDC complex spheroid viability
Test: Anticancer human tumor 362531-283-R-J2-PDC cell line growth inhibition [RAS];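 further: spheroids exposed to the agents for 7 days before readout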;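 on viability, T/C: luminescence viability as percent of DMSO vehicle control wells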
Details: second compound 0.0316 µM; first compound 0.00316 µM; stronger effect = lower value
Give your result in % as a bare value.

Fill in: 362531-283-R-J2-PDC complex spheroid viability viability, T/C for O=C(c1ccc(F)c(F)c1Nc1ccc(I)cc1F)N1CC(O)([C@@H]2CCCCN2)C1 + C#Cc1c(F)ccc2cc(O)cc(-c3ncc4c(N5CC6CCC(C5)N6)nc(OCC56CCCN5CC(F)C6)nc4c3F)c12 = 97.9

Fill in: 362531-283-R-J2-PDC complex spheroid viability viability, T/C for C=CC(=O)Nc1cc(Nc2nccc(-c3cn(C)c4ccccc34)n2)c(OC)cc1N(C)CCN(C)C + C=CC(=O)N1CCN(c2nc(OCC3CCCN3C)nc3c(F)c(-c4nc(N)cc(C)c4C(F)(F)F)c(Cl)cc23)C(C)C1 = 104

Fill in: 362531-283-R-J2-PDC complex spheroid viability viability, T/C for CC(C)n1nc(-c2ccc3oc(N)nc3c2)c2c(N)ncnc21 + C=CC(=O)N1CCN(c2nc(OCC3CCCN3C)nc3c(F)c(-c4nc(N)cc(C)c4C(F)(F)F)c(Cl)cc23)C(C)C1 = 102

Fill in: 362531-283-R-J2-PDC complex spheroid viability viability, T/C for CC(C)n1nc(-c2ccc3oc(N)nc3c2)c2c(N)ncnc21 + C#Cc1c(F)ccc2cc(O)cc(-c3ncc4c(N5CC6CCC(C5)N6)nc(OCC56CCCN5CC(F)C6)nc4c3F)c12 = 91.9

Fill in: 362531-283-R-J2-PDC complex spheroid viability viability, T/C for CCN1CCN(Cc2ccc(Nc3ncc(F)c(-c4cc(F)c5nc(C)n(C(C)C)c5c4)n3)nc2)CC1 + C#Cc1c(F)ccc2cc(O)cc(-c3ncc4c(N5CC6CCC(C5)N6)nc(OCC56CCCN5CC(F)C6)nc4c3F)c12 = 89.4

---
Fill in: 362531-283-R-J2-PDC complex spheroid viability viability, T/C for Nc1ccn(C2OC(CO)C(O)C2(F)F)c(=O)n1 (stereo unspecified) + C=CC(=O)N1CCN(c2nc(OCC3CCCN3C)nc3c(F)c(-c4nc(N)cc(C)c4C(F)(F)F)c(Cl)cc23)C(C)C1 = 93.5

----------
Test system: 362531-283-R-J2-PDC complex spheroid viability
Assay: Anticancer human tumor 362531-283-R-J2-PDC cell line growth inhibition [RAS];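 further: spheroids exposed to the agents for 7 days before readout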
Details: curve of first compound; second compound 0.0949 µM
Quantity Name: pIC50
Scale: negative log10 of molar concentration, which is what pIC50 denotes.

# pIC50 (compound: Nc1ccn(C2OC(CO)C(O)C2(F)F)c(=O)n1 (configuration not stated) + CCn1c(-c2cccnc2C(C)OC)c2c3cc(ccc31)N1CCOC(CC(NC(=O)C(C(C)C)N(C)C(=O)C3(F)CCN(C(=O)C#CC(C)(C)N(C)C)CC3)C(=O)N3CCCC(N3)C(=O)OCC(C)(C)C2)C1 ) is 6.88

# pIC50 (compound: O=C(c1ccc(F)c(F)c1Nc1ccc(I)cc1F)N1CC(O)([C@@H]2CCCCN2)C1 + CCn1c(-c2cccnc2C(C)OC)c2c3cc(ccc31)N1CCOC(CC(NC(=O)C(C(C)C)N(C)C(=O)C3(F)CCN(C(=O)C#CC(C)(C)N(C)C)CC3)C(=O)N3CCCC(N3)C(=O)OCC(C)(C)C2)C1 ) is 6.24

Turning now to a further record.
# pIC50 (compound: CC(Nc1ccc2c(c1)OCCn1cc(N3C(=O)OCC3C(F)F)nc1-2)C(N)=O (configuration not stated) + CCn1c(-c2cc(N3CCN(C)CC3)cnc2C(C)OC)c2c3cc(ccc31)-c1csc(n1)CC(NC(=O)C1CC1C)C(=O)N1CCCC(N1)C(=O)OCC(C)(C)C2 ) is 6.37

----------
Test system: 362531-283-R-J2-PDC complex spheroid viability
Test: Anticancer human tumor 362531-283-R-J2-PDC cell line growth inhibition [RAS];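 further: spheroids exposed to the agents for 7 days before readout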
Conditions: curve of first compound; second compound 0.000949 µM
Quantity Name: IC50

As a guide, the following entries are already answered.
# IC50 (compound: C=CC(=O)N1CCN(c2nc(OCC3CCCN3C)nc3c(F)c(-c4nc(N)cc(C)c4C(F)(F)F)c(Cl)cc23)C(C)C1 (centres undefined) + CCn1c(-c2cccnc2C(C)OC)c2c3cc(ccc31)N1CCOC(CC(NC(=O)C(C(C)C)N(C)C(=O)C3(F)CCN(C(=O)C#CC(C)(C)N(C)C)CC3)C(=O)N3CCCC(N3)C(=O)OCC(C)(C)C2)C1 ) is > 1 µM

# IC50 (compound: CC(C)NCC(C(=O)N1CCN(c2ncnc3c2C(C)CC3O)CC1)c1ccc(Cl)cc1 (centres undefined) + CCn1c(-c2cccnc2C(C)OC)c2c3cc(ccc31)N1CCOC(CC(NC(=O)C(C(C)C)N(C)C(=O)C3(F)CCN(C(=O)C#CC(C)(C)N(C)C)CC3)C(=O)N3CCCC(N3)C(=O)OCC(C)(C)C2)C1 ) is > 10 µM

# IC50 (compound: C=CC(=O)Nc1cc(Nc2nccc(-c3cn(C)c4ccccc34)n2)c(OC)cc1N(C)CCN(C)C + CCn1c(-c2cccnc2C(C)OC)c2c3cc(ccc31)N1CCOC(CC(NC(=O)C(C(C)C)N(C)C(=O)C3(F)CCN(C(=O)C#CC(C)(C)N(C)C)CC3)C(=O)N3CCCC(N3)C(=O)OCC(C)(C)C2)C1 ) is > 1 µM

Turning now to a further record.
# IC50 (compound: Cc1nc(N2CCC3(CC2)COC(C)C3N)c(CO)nc1Sc1ccnc(N)c1Cl (centres undefined) + CCn1c(-c2cccnc2C(C)OC)c2c3cc(ccc31)N1CCOC(CC(NC(=O)C(C(C)C)N(C)C(=O)C3(F)CCN(C(=O)C#CC(C)(C)N(C)C)CC3)C(=O)N3CCCC(N3)C(=O)OCC(C)(C)C2)C1 ) is > 10 µM
